// data source = patent US10710978B2

Target: CK1g2 (Homo sapiens (Human), UniProt P78368)
Sequence (P78368 whole entry): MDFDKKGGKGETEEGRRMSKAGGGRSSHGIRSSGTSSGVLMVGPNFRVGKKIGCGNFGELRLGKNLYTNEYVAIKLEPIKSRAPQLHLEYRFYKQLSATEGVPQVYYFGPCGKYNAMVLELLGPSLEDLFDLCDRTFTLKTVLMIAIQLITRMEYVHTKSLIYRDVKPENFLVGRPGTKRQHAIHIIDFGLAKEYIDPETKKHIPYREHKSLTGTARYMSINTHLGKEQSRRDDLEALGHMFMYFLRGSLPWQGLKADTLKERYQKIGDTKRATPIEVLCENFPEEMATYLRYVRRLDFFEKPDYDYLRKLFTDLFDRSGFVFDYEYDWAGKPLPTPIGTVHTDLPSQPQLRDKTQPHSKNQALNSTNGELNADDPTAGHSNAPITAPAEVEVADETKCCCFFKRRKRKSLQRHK
Experiment: KiNativ assay
Format: binding
Conditions: H929 live cell, read-out: inhibition (10 μM)
Assignment: determine reported inhibition at 10 µM for the given molecules.

Task item: Name the recorded inhibition at 10 µM of the molecule listed here: CN(C1CC1)S(=O)(=O)c1ccc(-c2cnc(N)c(-c3ccc4c(c3)CCNC4=O)c2)c(F)c1 [Compound I-28]
Reply: > 90%

Task item: Name the recorded inhibition at 10 µM of the molecule listed here: Nc1ncc(-c2cccc([N+](=O)[O-])c2F)cc1-c1ccc2c(c1)CCNC2=O [Compound I-9]
Reply: > 90%

Task item: Name the recorded inhibition at 10 µM of the molecule listed here: Nc1ncc(-c2cccc3ncsc23)cc1-c1ccc2c(c1)CCNC2=O [Compound I-13]
Reply: > 90%

----------
Assignment: determine reported IC50 for the given compounds.
Molecular target: STK3 (MST2) (Homo sapiens (Human))
Sequence (Q13188 whole entry): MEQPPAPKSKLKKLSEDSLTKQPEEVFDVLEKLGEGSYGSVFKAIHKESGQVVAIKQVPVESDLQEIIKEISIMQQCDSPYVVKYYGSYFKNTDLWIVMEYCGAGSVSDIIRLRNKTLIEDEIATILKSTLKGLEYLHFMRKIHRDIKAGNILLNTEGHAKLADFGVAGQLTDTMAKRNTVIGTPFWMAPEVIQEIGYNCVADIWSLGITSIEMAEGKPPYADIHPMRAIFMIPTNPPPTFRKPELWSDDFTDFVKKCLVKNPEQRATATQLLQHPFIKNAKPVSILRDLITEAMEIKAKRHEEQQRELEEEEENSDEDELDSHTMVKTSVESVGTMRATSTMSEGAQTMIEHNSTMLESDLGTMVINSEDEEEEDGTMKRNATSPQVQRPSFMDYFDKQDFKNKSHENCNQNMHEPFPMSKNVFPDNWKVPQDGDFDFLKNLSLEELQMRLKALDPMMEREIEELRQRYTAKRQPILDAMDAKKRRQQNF

Task item: Name the recorded IC50 of the compound listed here: COc1cc(S(=O)(=O)N(C)C2CC2)ccc1-c1cnc(N)c(-c2ccc3c(c2)CCNC3=O)c1 [Compound I-72]
Reply: < 40 nM

Task item: Name the recorded IC50 of the compound listed here: N#Cc1cccc(-c2cnc(N)c(-c3ccc4c(c3)CCNC4=O)c2)c1 [Compound I-75]
Reply: 40 to 200 nM

Task item: Name the recorded IC50 of the compound listed here: Nc1ncc(-c2cccc([N+](=O)[O-])c2F)cc1-c1ccc2c(c1)CCNC2=O [Compound I-9]
Reply: < 40 nM

Task item: Name the recorded IC50 of the compound listed here: CN(C1CC1)S(=O)(=O)c1ccc(-c2cnc(N)c(-c3ccc4c(c3)CCNC4=O)c2)c(F)c1 [Compound I-28]
Reply: < 40 nM

Task item: Name the recorded IC50 of the compound listed here: Nc1ncc(-c2cc([N+](=O)[O-])ccc2F)cc1-c1ccc2c(c1)CCNC2=O [Compound I-1]
Reply: 40 to 200 nM

Task item: Name the recorded IC50 of the compound listed here: Nc1ncc(-c2cccc3ncsc23)cc1-c1ccc2c(c1)CCNC2=O [Compound I-13]
Reply: 40 to 200 nM

----------
pIC50: −log10 of the molar value.
For reference, pIC50 measured on STK4 (MST1) (Homo sapiens (Human)):

Task item: Name the recorded pIC50 of the compound listed here: `N#Cc1cccc(-c2cnc(N)c(-c3ccc4c(c3)CCNC4=O)c2)c1`
Reply: 6.70 to 7.40

Task item: Name the recorded pIC50 of the compound listed here: `Nc1ncc(-c2cccc3ncsc23)cc1-c1ccc2c(c1)CCNC2=O`
Reply: > 7.40

Task item: Name the recorded pIC50 of the compound listed here: `CN1CCc2cc(-c3cc(-c4ccc(S(=O)(=O)N(C)C5CC5)cc4F)cnc3N)ccc2C1=O`
Reply: > 7.40

Task item: Name the recorded pIC50 of the compound listed here: `C#Cc1cc(F)c(-c2cnc(N)c(-c3ccc4c(c3)CCNC4=O)c2)cc1[N+](=O)[O-]`
Reply: 6.70 to 7.40

Task item: Name the recorded pIC50 of the compound listed here: `COc1cc(C#N)ccc1-c1cnc(N)c(-c2ccc3c(c2)CCNC3=O)c1`
Reply: > 7.40

Task item: Name the recorded pIC50 of the compound listed here: `Nc1ncc(-c2cc([N+](=O)[O-])ccc2Cl)cc1-c1ccc2c(c1)CCNC2=O`
Reply: < 6.05

Task item: Name the recorded pIC50 of the compound listed here: `Nc1ncc(-c2cc(F)cc([N+](=O)[O-])c2)cc1-c1ccc2c(c1)CCNC2=O`
Reply: 6.70 to 7.40

Task item: Name the recorded pIC50 of the compound listed here: `CN(C1CC1)S(=O)(=O)c1ccc(-c2cnc(N)c(-c3ccc4c(c3)CCNC4=O)c2)c(F)c1`
Reply: > 7.40

Task item: Name the recorded pIC50 of the compound listed here: `Nc1ncc(-c2cncc3ncsc23)cc1-c1ccc2c(c1)CCNC2=O`
Reply: 6.05 to 6.70

Task item: Name the recorded pIC50 of the compound listed here: `Nc1ncc(-c2cc([N+](=O)[O-])cnc2F)cc1-c1ccc2c(c1)CCNC2=O`
Reply: 6.05 to 6.70

Task item: Name the recorded pIC50 of the compound listed here: `Nc1ncc(-c2cccc3ncsc23)cc1-c1ccc2c(=O)[nH]cnc2c1`
Reply: 6.70 to 7.40

Task item: Name the recorded pIC50 of the compound listed here: `Nc1ncc(-c2cc3scnc3cc2F)cc1-c1ccc2c(c1)CCNC2=O`
Reply: 6.70 to 7.40

Task item: Name the recorded pIC50 of the compound listed here: `Nc1ncc(-c2cc([N+](=O)[O-])cc(F)c2F)cc1-c1ccc2c(c1)CCNC2=O`
Reply: 6.70 to 7.40

Task item: Name the recorded pIC50 of the compound listed here: `Nc1ncc(-c2ccc(NS(=O)(=O)C3CC3)cc2OCc2ccccc2)cc1-c1ccc2c(c1)CCNC2=O`
Reply: 6.70 to 7.40

Task item: Name the recorded pIC50 of the compound listed here: `Nc1ncc(-c2ccc(NS(=O)(=O)C3CC3)cc2F)cc1-c1ccc2c(c1)CCNC2=O`
Reply: > 7.40

Task item: Name the recorded pIC50 of the compound listed here: `Nc1ncc(-c2cccc([N+](=O)[O-])c2F)cc1-c1ccc2c(c1)CCNC2=O`
Reply: > 7.40

Task item: Name the recorded pIC50 of the compound listed here: `Nc1ncc(-c2cc3c(cc2F)OCC(=O)N3)cc1-c1ccc2c(c1)CCNC2=O`
Reply: > 7.40

Task item: Name the recorded pIC50 of the compound listed here: `CC(C)Oc1cc(S(=O)(=O)N(C)C2CC2)ccc1-c1cnc(N)c(-c2ccc3c(c2)CNC3=O)c1`
Reply: > 7.40

Task item: Name the recorded pIC50 of the compound listed here: `Nc1ncc(-c2cc([N+](=O)[O-])c(Cl)cc2F)cc1-c1ccc2c(c1)CCNC2=O`
Reply: 6.70 to 7.40

----------
Molecular target: MPSK1 (Homo sapiens (Human))
Sequence (O75716 whole entry): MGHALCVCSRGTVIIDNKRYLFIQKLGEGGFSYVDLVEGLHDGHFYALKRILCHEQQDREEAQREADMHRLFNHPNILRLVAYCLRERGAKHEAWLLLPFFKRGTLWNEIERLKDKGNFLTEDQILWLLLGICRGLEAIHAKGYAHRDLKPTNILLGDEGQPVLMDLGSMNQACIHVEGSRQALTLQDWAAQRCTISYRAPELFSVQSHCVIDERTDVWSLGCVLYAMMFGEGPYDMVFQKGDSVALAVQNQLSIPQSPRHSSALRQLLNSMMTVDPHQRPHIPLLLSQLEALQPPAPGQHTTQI
Assay: KiNativ assay
Assay type: binding
Settings: H929 live cell, read-out: inhibition (10 μM)
Quantity: inhibition at 10 µM (%)
Dear colleague, please return just the value in %, with no unit written.

Task item: Name the recorded inhibition at 10 µM of the molecule listed here: CN(C1CC1)S(=O)(=O)c1ccc(-c2cnc(N)c(-c3ccc4c(c3)CCNC4=O)c2)c(F)c1 [Compound I-28]
Reply: -9.1

Task item: Name the recorded inhibition at 10 µM of the molecule listed here: COc1cc(NS(=O)(=O)C2CC2)ccc1-c1cnc(N)c(-c2ccc3c(c2)CCNC3=O)c1 [Compound I-50]
Reply: 15.7

Task item: Name the recorded inhibition at 10 µM of the molecule listed here: Nc1ncc(-c2cccc3ncsc23)cc1-c1ccc2c(c1)CCNC2=O [Compound I-13]
Reply: -28.8

Task item: Name the recorded inhibition at 10 µM of the molecule listed here: Nc1ncc(-c2cccc([N+](=O)[O-])c2F)cc1-c1ccc2c(c1)CCNC2=O [Compound I-9]
Reply: 55.2
